The values you see were collected from paper PMC8510595.

Below, each of the molecules is paired with its reported Ki value.
# testSystem: hCA II (Homo sapiens)
# Construct: gene CA2; recombinant, obtained in the authors' laboratory; cytosolic
# testMethodNotes: stopped-flow CO2 hydration assay
# Assay type: biochemical
# conditionSet: read-out: Ki (μM)^b / hCA II
Reply with just the number (in µM).

- compoundString: "COc1cc(/C=C/C(=O)c2ccc(Br)cc2)ccc1O"
  readingUnit: "µM"
  recordedResult: 82

I am curious: what Ki value has been reported for COc1cc(/C=C/C(=O)c2ccccc2)ccc1O ?
96.4

###

Below, each of the compounds is paired with its reported log10 of Ki value.
# testSystem: hCA XII (Homo sapiens, UniProt O43570)
# Construct: gene CA12; recombinant, obtained in the authors' laboratory; transmembrane isoform
# Sequence (O43570 25-354 limits assumed): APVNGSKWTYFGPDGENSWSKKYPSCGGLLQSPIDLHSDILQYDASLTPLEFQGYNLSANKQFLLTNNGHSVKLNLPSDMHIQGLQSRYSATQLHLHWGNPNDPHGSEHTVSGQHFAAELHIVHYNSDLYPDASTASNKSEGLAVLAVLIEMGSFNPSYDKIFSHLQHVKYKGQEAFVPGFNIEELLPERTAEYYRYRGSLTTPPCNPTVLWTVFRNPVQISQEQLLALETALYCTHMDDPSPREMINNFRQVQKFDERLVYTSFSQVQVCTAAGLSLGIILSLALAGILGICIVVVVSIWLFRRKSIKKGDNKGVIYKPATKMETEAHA
# testMethodNotes: stopped-flow CO2 hydration assay
# Type: biochemical
# conditionSet: read-out: Ki (μM)^b / hCA XII
In our notation, the value equals log10 of Ki in µM.

- compoundString: "COc1cc(/C=C/C(=O)C[C@@H]2O[C@H](CO)[C@@H](O)[C@H](O)[C@H]2O)ccc1O"
  log10 of Ki: 0.68
- compoundString: "COc1cc(/C=C/C(=O)C[C@@H]2O[C@H](CO)[C@H](O)[C@H](O)[C@H]2O)ccc1O"
  log10 of Ki: 0.40
- compoundString: "COc1cc(/C=C/C(=O)c2ccc(Br)cc2)ccc1O"
  log10 of Ki: 0.81
- compoundString: "COc1cc(/C=C/C(=O)c2ccccc2)ccc1O"
  log10 of Ki: -0.20
- compoundString: "CCC(=O)/C=C/c1ccc(O)c(OC)c1"
  log10 of Ki: 0.40

I am curious: what log10 of Ki value has been reported for COc1cc(/C=C/C(=O)CC(C)C)ccc1O ?
0.23

###

Below, each of the compounds is paired with its reported Ki value.
# testSystem: hCA I (Homo sapiens)
# Construct: gene CA1; recombinant, obtained in the authors' laboratory; cytosolic
# Sequence (P00915 2-261): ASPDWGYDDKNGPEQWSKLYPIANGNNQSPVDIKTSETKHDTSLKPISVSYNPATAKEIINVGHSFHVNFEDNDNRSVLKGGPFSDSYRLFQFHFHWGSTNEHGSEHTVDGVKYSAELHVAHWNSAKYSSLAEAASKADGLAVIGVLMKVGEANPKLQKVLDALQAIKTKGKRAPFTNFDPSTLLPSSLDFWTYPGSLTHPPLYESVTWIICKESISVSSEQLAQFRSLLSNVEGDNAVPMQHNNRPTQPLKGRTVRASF
# testMethodNotes: stopped-flow CO2 hydration assay
# Assay type: biochemical
# conditionSet: read-out: Ki (μM)^b / hCA I
Reply with just the number (in µM).

Sample answers from the record:
- compoundString: "COc1cc(/C=C/C(=O)C[C@@H]2O[C@H](CO)[C@@H](O)[C@H](O)[C@H]2O)ccc1O"
  testSystem: "hCA I (Homo sapiens)"
  recordedMetric: "Ki"
  readingUnit: "µM"
  recordedResult: 71.6
- compoundString: "COc1cc(/C=C/C(=O)c2ccccc2)ccc1O"
  testSystem: "hCA I (Homo sapiens)"
  recordedMetric: "Ki"
  readingUnit: "µM"
  recordedResult: 76.3
- compoundString: "COc1cc(/C=C/C(=O)c2ccc(Br)cc2)ccc1O"
  testSystem: "hCA I (Homo sapiens)"
  recordedMetric: "Ki"
  readingUnit: "µM"
  recordedResult: 92.6

I am curious: what Ki value has been reported for COc1cc(/C=C/C(=O)C[C@@H]2O[C@H](CO)[C@H](O)[C@H](O)[C@H]2O)ccc1O ?
80.5

###

# testSystem: hCA IX (Homo sapiens)
# Construct: gene CA9; recombinant, obtained in the authors' laboratory; transmembrane isoform
# testMethodNotes: stopped-flow CO2 hydration assay
# Format: biochemical
# conditionSet: read-out: Ki (μM)^b / hCA IX
Below, each of the compounds is paired with its reported Ki value.
Reply with just the number (in µM).

Sample answers from the record:
- compoundString: "COc1cc(/C=C/C(=O)C[C@@H]2O[C@H](CO)[C@H](O)[C@H](O)[C@H]2O)ccc1O"
  recordedMetric: "Ki"
  recordedResult: 20.8
- compoundString: "CCC(=O)/C=C/c1ccc(O)c(OC)c1"
  recordedMetric: "Ki"
  recordedResult: 32
- compoundString: "COc1cc(/C=C/C(=O)c2ccccc2)ccc1O"
  recordedMetric: "Ki"
  recordedResult: 29.1
- compoundString: "COc1cc(/C=C/C(=O)CC(C)C)ccc1O"
  recordedMetric: "Ki"
  recordedResult: 26.3

Now look at this one.
I am curious: what Ki value has been reported for COc1cc(/C=C/C(=O)C[C@@H]2O[C@H](CO)[C@@H](O)[C@H](O)[C@H]2O)ccc1O ?
30.8
